Measured INHIBITION, listed per entry.
- System: Plasmodium berghei
- assay remarks: Screen against P. berghei liver stage (PbLuc), transformed with Luciferase, at 10uM
- Type: functional, HepG2
- condition summary: tested at 10 uM
Out of some 69,000 compounds screened, about 8,600 (12%) showed an effect of 50% or more. The sample holds strong results, similar compounds and a random draw of the others, so the mix is not that of the screen.
Report as a plain number; the unit % is understood.

1. COCCC(Cc1cccc(Br)c1)C(=O)NCC(N)=O (centres undefined) :: 12.3
2. CN(CCn1cccn1)C1CCCN(Cc2noc(C3CC3)n2)C1 (centres undefined) :: 39.7
3. CCC(=O)NCc1ccc(N2CCCCC2)cc1 :: -0.578
4. Cc1cc(CN2C[C@@H](C)[C@@]3(CCN(CC(=O)N(C)C)C3=O)C2)oc1C :: 51.2
5. Cn1nccc1-c1nnn2c1COCC(CNCC1CC1)C2 (centres undefined) :: 45.7

Recall the recorded INHIBITION for `Cc1occc1C(=O)N1CCO[C@H]2[C@H](OCc3cccnc3)CC[C@@H]21` with Plasmodium berghei and state it.
34.4

Tell me reported INHIBITION for `CS(=O)(=O)N1CCc2c(cccc2NC(=O)Nc2ccccn2)C1` , tested with Plasmodium berghei.
19.2

Please state recorded INHIBITION (tested on Plasmodium berghei) of CN1CCN(Cc2c(Cl)ccc(O)c2Cl)CC1C(=O)O (centres undefined)
-27.6

Param readout= INHIBITION; system= Plasmodium berghei; entry= `O=C(CCc1nc2cc(Br)cnc2[nH]1)NCCCn1ccnc1` ; returns value.
-7.28

Missing value: INHIBITION, Plasmodium berghei, entry `CN1CC[C@]2(CN(Cc3cccs3)C[C@H]2c2ccccc2)C1=O` . Fill in?
24.9

###

Readings of INHIBITION for the listed compounds
- Test system: Plasmodium berghei
- assay remarks: Screen against P. berghei liver stage (PbLuc), transformed with Luciferase, at 10uM
- Assay type: functional, HepG2
- condition summary: tested at 10 uM
Screen size: about 69,000 compounds; about 8,600 (12%) showed an effect of 50% or more. What follows is part of a selection rich in strong results, with near analogues and random picks from the rest.
Kindly answer with a numeric value in %, unit omitted.

Use the examples below as a reference point.
1. COC(=O)CC1CCN(C(=O)Nc2ccc(-c3ccn[nH]3)cc2)C1 (configuration not stated) :: 37.7
2. O=C1CCNc2ccc(F)cc2CN1Cc1ccco1 :: 1.8
3. Cc1c(Cl)c(C(F)(F)F)nn1C(C)C(=O)NC1CCN(C)CC1 (configuration not stated) :: 26.8
4. Cc1ccc(CCNC(=O)NCCCC(N)=O)c(C)c1 :: -18.6
5. CCNC(=O)N1CCC(NC(=O)NCCCc2cccc(F)c2)C1 (configuration not stated) :: 35

For `COc1cccc2c1ccn2CCNC(=O)CCNc1ncccn1` , what is its reported INHIBITION?
38.5

Value lookup for INHIBITION; key = `O=c1n(CCNCc2ccc(-c3ccccc3)cc2)nc2ccccn12`
35.7

What does the record list as INHIBITION for CCNC(=O)N1CCC(Cc2cccc(C(N)=O)c2)C1 (configuration not stated) ?
10.7

Record request: INHIBITION value, item `CCOCCc1nc(-c2cnn3c(C)cc(C)nc23)no1`
10.6

Value lookup for INHIBITION; key = Cc1nn(C)c(C)c1C1CCCN1C(=O)c1ccc(N(C)C)nn1 (configuration not stated)
-71.1

###

Recorded INHIBITION values for a group of molecules are listed next.
- System: Plasmodium berghei
- assay remarks: Screen against P. berghei liver stage (PbLuc), transformed with Luciferase, at 10uM
- Format: functional, HepG2
- condition summary: tested at 10 uM
Among all 69,000 compounds or so, about 8,600 (12%) showed an effect of 50% or more. Many of the other results were omitted from the sample, so strong results are more common in it than they were.
Note: unit % is implicit; provide only the numeric part.

These recorded examples may help you get a feel for the data.
1) c1ccc2sc(N3CCCC4(CCOC4)C3)nc2c1 (stereo not drawn) :: -50.5
2) c1ccc(N2CCCC3(COCCN(c4nccs4)C3)C2)nc1 (stereo not drawn) :: 68.5

For the molecule shown here, `CN(Cc1csc(-c2cccs2)n1)C(=O)CCn1ccccc1=O` , give the reported INHIBITION.
-33

###

- System: Plasmodium berghei
- assay remarks: Screen against P. berghei liver stage (PbLuc), transformed with Luciferase, at 10uM
- Format: functional, HepG2
- condition summary: tested at 10 uM
The whole screen tested about 69,000 compounds, of which about 8,600 (12%) showed an effect of 50% or more. The sample as a whole holds a higher share of strong results than the screen did.
observation type: INHIBITION
Include the unit right after the number.

1. O=C(c1cccnc1)N1CCOC(CCCc2ccccc2)C1 (stereo not drawn) :: 60.9%
2. COc1ccc(C2=NOC(CC#N)C2)cc1 (stereo not drawn) :: 45.8%
3. CCc1n[nH]c(C2CN(C(=O)c3cscn3)CCO2)n1 (stereo not drawn) :: -23.9%
4. O=C(CSc1ccccc1F)NS(=O)(=O)c1ccc2c(c1)OCCO2 :: 40.9%

Now for another entry.
Look at this molecule and give its reported INHIBITION. `CC(C)NC(=O)c1cccc(Oc2ccc3nncn3n2)c1`
2.84%

###

- System: Plasmodium berghei
- assay remarks: Screen against P. berghei liver stage (PbLuc), transformed with Luciferase, at 10uM
- Format: functional, HepG2
- condition summary: tested at 10 uM
Among all 69,000 compounds or so, about 8,600 (12%) showed an effect of 50% or more. The entries come from a sample that favours strong results as a whole.
observation type: INHIBITION (%)
Report as a plain number; the unit % is understood.

Below, 3 compounds whose answers are already recorded.
1. O=C(CCn1ccc2ccccc21)N1CCC(Nc2cccnn2)CC1 :: -35.2
2. Cc1noc(C)c1-c1cc(CCC2CN(C(=O)CN)CCO2)ncn1 (stereo unspecified) :: -7.005
3. NCC1Cc2cc(-c3cncc(C(=O)N4CCCCC4)n3)cc(F)c2O1 (stereo unspecified) :: 18.3

Using the record for `O=C(CCn1ccc2ccccc21)N1CCN(Cc2cccnc2)CC1` , report its INHIBITION.
64.9

Recorded INHIBITION for `Cc1nc(CN2CCN(C(=O)CCC(=O)c3ccccc3)CC2)no1` , please?
-36.4

I have this compound here, `O=C(Nc1ccccc1N1CCOC1=O)N1CCc2sccc2C1` , and I need its recorded INHIBITION.
18.4

###

- Tested on: Plasmodium berghei
- assay remarks: Screen against P. berghei liver stage (PbLuc), transformed with Luciferase, at 10uM
- Format: functional, HepG2
- condition summary: tested at 10 uM
In all, about 69,000 compounds went through this assay and about 8,600 (12%) showed an effect of 50% or more. This excerpt belongs to a sample that is enriched for strong results.
Parameter INHIBITION: see the listing below.
Form entry: value (%) — number only.

Below, each entry is followed by its recorded INHIBITION result.
1. CNC(=O)c1ccc(C(=O)N2CCCC2c2cnn(C)c2)cn1 (configuration not stated) :: 59.4
2. Cc1c(C)n(CC(O)CN2CCOCC2)c2c(Cl)cccc12 (configuration not stated) :: 56.5
3. CC(C)CN(C)c1ccc(C(=O)N2CCCC2c2cnn(C)c2)cn1 (configuration not stated) :: 52.1
4. CCN(c1ccc(C(=O)N2CCCC2c2cnn(C)c2)cn1)C(C)C (configuration not stated) :: 48.4
5. O=C(CC1CCN(CCc2ccccc2)CC1)NC1CCOCC1 :: 25.8

Reported INHIBITION for `Cc1cc(NC(=O)NCCC(=O)N2CCCc3ccccc32)no1` : what is it?
16.1

Can you look up the measured INHIBITION of `CS(=O)(=O)NC[C@@H]1OC[C@H]2CN(Cc3ccccc3)CC[C@H]21` for me?
-54.9

###

Reported INHIBITION by item:
- Test system: Plasmodium berghei
- assay remarks: Screen against P. berghei liver stage (PbLuc), transformed with Luciferase, at 10uM
- Type: functional, HepG2
- condition summary: tested at 10 uM
Screen size: about 69,000 compounds; about 8,600 (12%) showed an effect of 50% or more. This is one part of a sample in which strong results are shown more often than they occur.
Hi! Could you send only the number? It should be in %, unit omitted.

Before answering, review these 2 worked examples.
1. CC1CN(C)CCN1C(=O)c1ccn(-c2cccc(F)c2)n1 (stereo not drawn) :: 51.1
2. CC1CN(C)CCN1C(=O)c1ccn(-c2ccccc2)n1 (stereo not drawn) :: 63.5

Suppose we examine the compound Cn1ccnc1CN(CCCO)C1CCCc2ccccc21 (stereo not drawn) ; what INHIBITION value has been reported?
-26.8

###

- System: Plasmodium berghei
- assay remarks: Screen against P. berghei liver stage (PbLuc), transformed with Luciferase, at 10uM
- Assay type: functional, HepG2
- condition summary: tested at 10 uM
In all, about 69,000 compounds went through this assay and about 8,600 (12%) showed an effect of 50% or more. The list comes from a sample in which strong results are over-represented; it also holds close analogues and randomly drawn compounds.
observation type: INHIBITION (%)
# value in %; strip the unit string

Which INHIBITION value belongs to `COc1ccc(C(=O)N2C[C@@H](O)[C@H](NCCc3ncccc3C)C2)cc1` ?
-15.3
